# System: MS2 coat protein
# Assay details: apparent KD of MS2 coat protein; designed switch direction (-1 OFF switch, 1 ON switch): -1; higher = weaker reporter binding
# Condition details: Eterna round: R95; input ligand: microRNA oligo, concentration not stated
Entry flag: True if apparent KD of MS2 coat protein reaches 0.03 µM; False if it does not.

Some entries whose results are on file:
{"Sequence string": "CCAUGUUAGCAGGAUAUGCUAUUAAUCUUUUAUGCAGAAGGGCUUACAUGAGGAUCACCCAUGUAUUAAGUCUU [JR_E6_Sub076] (puzzle: Exclusion 6)", "Target": "MS2 coat protein", "Class name": "False"}
{"Sequence string": "CGUUACUACAAGCUUUGGGACAUGAGGAUCACCCAUGUUCGUCUUAUUGUAGUAGGUACGCUGACGUACCUACUACU [JL-sv1-2.10 Brourd mod] (puzzle: Sensor v3, turn-off variant 1)", "Target": "MS2 coat protein", "Class name": "False"}
{"Sequence string": "GUGUACUGAGGAUAUACAUGAGGAUCACCCAUGUGAAUAAGAUAGAAUAAGAUAAAGUGUAGAAGGCAGAGUGU [Excluse me!!! 2 - Jieux - Exclusion 3] (puzzle: Exclusion 3)", "Target": "MS2 coat protein", "Class name": "True"}
{"Sequence string": "CUUGUUUAAGUGAGGAUAUACUGUUAGUAAUGAUUGUAGAAGGUACAUGAGGAUCACCCAUGUUUAUUUAUAUU [JR_BME4_Sub042] (puzzle: Brourd's mod of Exclusion 4)", "Target": "MS2 coat protein", "Class name": "False"}

Consider now this further sequence.
Please check the record GGUGCGUUUGUGAGGAUAUGCUGGUCCUUGGAUCAGCAGAAGGCACAUGAGGAUCACCCAUGUGGUGUCGGUCC [salish99_Bmod_Ex4_038] (puzzle: Brourd's mod of Exclusion 4) and state if its apparent KD of MS2 coat protein is at or above 0.03 µM.
True
